- target.desc: UniProtKB P08482
- Sequence (P08482 whole entry): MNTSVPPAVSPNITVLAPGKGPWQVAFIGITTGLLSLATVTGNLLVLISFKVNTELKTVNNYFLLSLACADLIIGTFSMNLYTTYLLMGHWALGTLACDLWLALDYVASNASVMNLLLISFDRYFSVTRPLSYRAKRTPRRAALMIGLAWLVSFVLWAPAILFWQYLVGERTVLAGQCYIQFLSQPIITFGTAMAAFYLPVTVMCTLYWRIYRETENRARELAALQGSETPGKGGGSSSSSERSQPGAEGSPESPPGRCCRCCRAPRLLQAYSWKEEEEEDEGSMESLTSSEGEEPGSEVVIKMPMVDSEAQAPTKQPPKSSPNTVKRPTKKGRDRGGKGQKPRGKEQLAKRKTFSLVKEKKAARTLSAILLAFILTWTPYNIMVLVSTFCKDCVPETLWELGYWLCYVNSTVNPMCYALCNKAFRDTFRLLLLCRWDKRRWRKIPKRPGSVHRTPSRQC
- assay.explanation: Test for affinity for the M1-type muscarinic cholinergic receptor: displacement of [3H]pirenzepine on rat hippocampus homogenate
- Format: binding
- condition.notes: ratio of IC50 M2 (3H-NMS, guinea-pig ileum) to IC50 M1 (3H-pirenzepine, rat hippocampus)
- Description: The M1 -type receptors are concentrated in certain areas of the brain, such as the hippocampus, the cerebral cortex and the striatum, and also in the sympathetic ganglia. […] The interaction of the molecules with M1 -type muscarinic receptors was studied by in vitro measurement, on a homogenate of rat hippocampus, of the displacement of tritiated pirenzepine ([^3 H]PZ) from its specific binding sites. […] The non-specific binding is determined in the presence of 10 μmol/l of atropine sulfate. […]
Counter-ions that a name gives are not always drawn.
Let's look at some compounds and their measured r = (M2 /M1).
Write the number on its own, no unit after it.

CCN(CC)CCNc1cc2c(nn1)-c1cc(Cl)ccc1CCC2.Cl.Cl ... 26
CCN(CC)CCNc1cc2c(nn1)-c1cc(Cl)c(Cl)cc1CCC2.Cl.Cl ... 10
Cl.Cl.c1ccc2c(c1)CCCc1cc(NCCN3CCOCC3)nnc1-2 ... 137
CCN(CC)CCNc1cc2ccc3ccccc3c2nn1.Cl.Cl ... 53
CN(C)CCOc1cc2c(nn1)-c1ccccc1CCC2.Cl ... 9.5

For UniProtKB P08482, provide r = (M2 /M1) of `CCN(CC)CCNc1cc2c(nn1)-c1ccccc1CC2.Cl.Cl` please.
36

For UniProtKB P08482, provide r = (M2 /M1) of `CCN(CC)CCSc1cc2c(nn1)-c1ccccc1CC2.Cl` please.
14

For UniProtKB P08482, provide r = (M2 /M1) of CCN(CC)CCSc1cc2c(nn1)-c1ccccc1CCC2 [SR 95820 A, hydrochloride] please.
29

For UniProtKB P08482, provide r = (M2 /M1) of `c1ccc2c(c1)CCCc1cc(NCCN3CCCCC3)nnc1-2` please.
24

For UniProtKB P08482, provide r = (M2 /M1) of `CCN(CC)CCNc1cc2c(nn1)-c1cc(C)c(C)cc1CCCC2.Cl.Cl` please.
40

For UniProtKB P08482, provide r = (M2 /M1) of `Cc1cc2c(cc1C)-c1nnc(NCCN(C(C)C)C(C)C)cc1CCC2` please.
11

For UniProtKB P08482, provide r = (M2 /M1) of `CC(C)N(CCNc1cc2c(nn1)-c1cc([N+](=O)[O-])ccc1CCC2)C(C)C` please.
10

For UniProtKB P08482, provide r = (M2 /M1) of CCN1CCCC1CNc1cc2c(nn1)-c1ccccc1CCC2 (stereo not shown) [SR 95879 A, dihydrochloride] please.
7

For UniProtKB P08482, provide r = (M2 /M1) of `CN(C)CCNc1cc2c(nn1)-c1cc(Cl)c(Cl)cc1CCC2` please.
10

For UniProtKB P08482, provide r = (M2 /M1) of `c1ccc2c(c1)CCCc1cc(NCCN3CCCC3)nnc1-2` please.
35
